test_target: A. fumigatus UGM (Aspergillus fumigatus, UniProt Q4W1X2)
Construct: 8x His-tag (TEV-cleavable) (cleaved yes); made in house; host or cells: E. coli BL21 Turbo (DE3)
Sequence (Q4W1X2 whole entry): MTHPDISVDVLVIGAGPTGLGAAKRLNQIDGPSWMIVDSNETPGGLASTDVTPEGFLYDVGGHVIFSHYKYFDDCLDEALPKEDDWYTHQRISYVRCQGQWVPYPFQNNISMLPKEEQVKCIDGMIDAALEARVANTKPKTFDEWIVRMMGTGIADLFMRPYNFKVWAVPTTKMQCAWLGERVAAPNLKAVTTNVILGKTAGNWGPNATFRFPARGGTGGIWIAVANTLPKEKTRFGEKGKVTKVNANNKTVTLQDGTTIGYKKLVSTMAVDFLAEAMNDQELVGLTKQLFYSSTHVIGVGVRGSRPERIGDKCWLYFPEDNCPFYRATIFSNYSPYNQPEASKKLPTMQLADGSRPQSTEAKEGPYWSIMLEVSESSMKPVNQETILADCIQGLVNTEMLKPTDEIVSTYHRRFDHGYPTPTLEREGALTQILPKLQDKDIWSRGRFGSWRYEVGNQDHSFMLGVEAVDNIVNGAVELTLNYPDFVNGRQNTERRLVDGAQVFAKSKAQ
assay_method_text: biochemical
Format: binding
metric: Kd (µM)
Numbers only here, please. The scale is µM.

O=C1C[C@@H](c2ccc(O)cc2)Oc2cc(O)cc(O)c21	65

Now consider the entry below.
Given item COc1ccc([C@@H]2CC(=O)c3c(O)cc(O)cc3O2)cc1O , the value recorded as its Kd is 31

* * *

test_target: A. fumigatus UGM (Aspergillus fumigatus, UniProt Q4W1X2)
Construct: 8x His-tag (TEV-cleavable) (cleaved yes); made in house; host or cells: E. coli BL21 Turbo (DE3)
assay_method_text: biochemical
Assay type: binding
applied_conditions: ITC, 25 °C
metric: T•∆S (kJ/mol)
Numbers only here, please. The scale is kJ/mol.

# annotated cases, reported T•∆S shown
COc1ccc([C@@H]2CC(=O)c3c(O)cc(O)cc3O2)cc1O [(2S)-hesperetin]	8.79
O=C1C[C@@H](c2ccc(O)cc2)Oc2cc(O)cc(O)c21 [(2S)-naringenin]	3.8
NC(=O)c1ccc[n+]([C@@H]2O[C@H](COP(=O)([O-])OP(=O)(O)OC[C@H]3O[C@@H](n4cnc5c(N)ncnc54)[C@H](OP(=O)(O)O)[C@@H]3O)[C@@H](O)[C@H]2O)c1 [NADP^+, reference compound]	-35.1

Given item O=c1ccn([C@@H]2O[C@H](COP(=O)(O)OP(=O)(O)O)[C@@H](O)[C@H]2O)c(=O)[nH]1 [UDP, reference compound] , the value recorded as its T•∆S is 43.9
